Where do the numbers come from? From PubChem BioAssay (Tox21).

Target: Vitamin D3 receptor (Homo sapiens)
Experiment: qHTS assay to identify small molecule antagonists of the vitamin D receptor (VDR) signaling pathway (AID 743223); also: % is scaled to controls: 0 for no effect and ±100 for the full control effect
Details: VDR-UAS-bla HEK293T, beta-lactamase FRET ratio, 16 h; series mostly up to 61 µM
Text: U.S. Tox21 Program National Center for Advancing Translational Sciences [NCATS] NIH Chemical Genomics Center [NCGC] U.S. Environmental Protection Agency [EPA] National Institutes of Environmental Health Sciences [NIEHS] National Toxicology Program [NTP] U.S. Food and Drug Administration [FDA] Tox21 Assay Overview: The vitamin D receptor (VDR), a member of nuclear hormone receptor superfamily, plays a critical role in calcium homeostasis and bone metabolism. […]
Results filed as inconclusive are left out. The source made the active and inactive calls. Calls follow the shape of the dose curve; as a rule, active = well fitted inhibition curve with a large enough effect in the signal ratio in the repeat runs (not every such curve was filed as active); inconclusive = weak or mixed curves, or effect the other way; inactive = no such curve, though single readings can be large or run the other way; the % refers to the signal ratio.
result-type: activity change, negative = inhibition

> print(dat)
                        structure.as.smiles            observed.measurement
1  O=C(Nc1ccc2c(O)c(N=Nc3ccc(N=Nc4ccc(S(=O)(=O)O)cc4)cc3)c(S(=O)(=O)O)cc2c1)c1ccccc1                        inactive
2              CC(C)Cn1cnc2c(N)nc3ccccc3c21                        inactive
3                                   O=C(O)O  0.752% [at 6.95 µM] (inactive)
4                       Oc1cc(Cl)cc(Cl)c1Cl                        inactive

---

assay: qHTS assay to identify small molecule antagonists of the farnesoid-X-receptor (FXR) signaling pathway - cell viability counter screen (AID 743221); conditions: FXR-bla HEK293T viability, CellTiter-Glo luminescence, 16 h; series mostly up to 62.6 µM; also: nearly all actives have a fitted effect of over 50% in size; also: potency is read from the fitted curve at half-maximal effect
Results filed as inconclusive are left out. Activity calls are given as the source filed them. Calls come from the whole dose curve; as a rule, active = well fitted cell-killing curve with a large enough effect in the repeat runs (not every such curve was filed as active); inconclusive = weak or mixed curves, or effect the other way; inactive = no such curve, though single readings can be large or run the other way.
result-type: Potency

> print(dat)
                                   compound  observed.measurement
1         Fc1ccc(C(c2ccc(F)cc2)N2CCNCC2)cc1      26.6 µM (active)
2  COc1cc2nc(N3CCN(C(=O)c4ccco4)CC3)nc(N)c2cc1OC              inactive
3                          COC(=O)c1ccccc1C              inactive
4                     O=C1CCCCCCCCCCCCCCCO1              inactive
5  CCO[C@@H]1O[C@H](C(COCc2ccccc2)OCc2ccccc2)[C@H](OCc2ccccc2)[C@H]1O (some centres not stated)      13.3 µM (active)

Query: // query Potency value for entry `C/C=C/C=C/COC(=O)C(C)C`
Result: inactive

Query: Would you kindly repeat that for `CC/C=C\CCCCCO` ?
Result: inactive

Query: Here is the next compound: `Nc1nc(N)nc(-c2cc(Cl)ccc2Cl)n1`
Result: inactive

Query: Please answer likewise for `CCC(=O)OC(=O)CC`
Result: inactive

Query: # iterate: `O=C1CCc2cc(OCCCCc3nnnn3C3CCCCC3)ccc2N1`
Result: inactive

Query: For `O=[N+]([O-])c1cccc(C(F)(F)F)c1` then?
Result: inactive

Query: Ok, now `OC[C@H]1O[C@H](O[C@H]2O[C@H](CO)[C@@H](O)[C@H](O)[C@H]2O)[C@H](O)[C@@H](O)[C@@H]1O`
Result: inactive
